System: LXRb homodimer (NR concentration 270 nM)
Assay: PBM binding z-score (relative to random genomic background probes); higher = stronger binding; sequences stand for … in GC…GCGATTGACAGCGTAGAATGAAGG
PBM binding z-score vs -0.2: at or above is fulfilled, below is not fulfilled.

Does the sequence ATATGTAGGTTAGGTTCATTCAGAAAGTAGGGAA have recorded PBM binding z-score that is -0.2 or more?
fulfilled

Does the sequence TAGCCTAGGTCATGCGGGTCAGTATAGTGTCGGC have recorded PBM binding z-score that is -0.2 or more?
fulfilled

Does the sequence ACTAATTGGTCAGCTGAGGTCACACACAATTCGG have recorded PBM binding z-score that is -0.2 or more?
fulfilled

Does the sequence GCTATTAGGTGAAAGGGCAACCGAATGATTCTCG have recorded PBM binding z-score that is -0.2 or more?
not fulfilled

Does the sequence CGAACTAGGTCACCAGGACACTGAAGAGGTTGGA have recorded PBM binding z-score that is -0.2 or more?
not fulfilled

Does the sequence AGTCAGAGTTCATCTAGGTAACGTAAGATATGCT have recorded PBM binding z-score that is -0.2 or more?
fulfilled

Does the sequence TGAATGAGGTCAAAGATCAGGGAACGTGGCGTCG have recorded PBM binding z-score that is -0.2 or more?
fulfilled

Does the sequence CGAACTAGGTCAAAGGACAGTGCAAGGCGACGTA have recorded PBM binding z-score that is -0.2 or more?
not fulfilled

Does the sequence ATAAGTAGGTTAGGGTCATTCAGAAAGTAGGGAA have recorded PBM binding z-score that is -0.2 or more?
fulfilled

Does the sequence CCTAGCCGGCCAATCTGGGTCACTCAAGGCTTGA have recorded PBM binding z-score that is -0.2 or more?
not fulfilled

Does the sequence CGAACTAGGTCACCAGGAAAGTGAAGAGGTTGGA have recorded PBM binding z-score that is -0.2 or more?
not fulfilled

Does the sequence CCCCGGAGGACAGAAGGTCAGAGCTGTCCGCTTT have recorded PBM binding z-score that is -0.2 or more?
not fulfilled

====

Test system: LXRb:RXRa (NR concentration 270 nM, RXRa partner concentration 90 nM)
Experiment: PBM binding z-score (relative to random genomic background probes); higher = stronger binding; sequences stand for … in GC…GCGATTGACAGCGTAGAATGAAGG
PBM binding z-score vs 4: at or above is 1.0, below is 0.0.

Does the sequence ATATGTAGGATAGGGTCATTCAGAAAGTAGGGAA have recorded PBM binding z-score that is 4 or more?
0.0

Does the sequence TAGCCTAGGTCATTGGACCAGTATAGTACGCATC have recorded PBM binding z-score that is 4 or more?
0.0

Does the sequence AGTCAAAGGTCACTAGGTAACGTAAGATTCAGCT have recorded PBM binding z-score that is 4 or more?
1.0

Does the sequence CGAACTAGGTCACCAGGCCAGTGAAGAGGTTGGA have recorded PBM binding z-score that is 4 or more?
0.0

Does the sequence CTATGAAGGTTAAGGGGGTCATTCAGTTTGAAAG have recorded PBM binding z-score that is 4 or more?
1.0

Does the sequence CCGAGTAGGTTACGAGGGGGGATTCAGTGCGAAT have recorded PBM binding z-score that is 4 or more?
1.0

Does the sequence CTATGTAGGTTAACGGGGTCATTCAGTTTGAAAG have recorded PBM binding z-score that is 4 or more?
1.0

Does the sequence CTCGAAAGGTCGGTTGAGGTCAGTATACGGATAA have recorded PBM binding z-score that is 4 or more?
0.0

Does the sequence CCGAGTAGGTTACGAGGGGGCATTCAGTGCGAAT have recorded PBM binding z-score that is 4 or more?
1.0

Does the sequence TCGAGTAGGTTACGAGGGCATTCAGGGATGAAGA have recorded PBM binding z-score that is 4 or more?
0.0

Does the sequence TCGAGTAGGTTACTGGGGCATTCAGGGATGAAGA have recorded PBM binding z-score that is 4 or more?
0.0

Does the sequence CGTCGGAGGACAGAAGGTCAGAGCTGTCCGCTTT have recorded PBM binding z-score that is 4 or more?
0.0

Does the sequence CGAACTAGGACACCAGGACAGTGAAGAGGTTGGA have recorded PBM binding z-score that is 4 or more?
0.0

Does the sequence ATAGGTAGGTTAGGGTCATTCAGAAAGTAGGGAA have recorded PBM binding z-score that is 4 or more?
1.0

Does the sequence CCGAGTAGGTTACGCGGGGGCATTCAGTGCGAAT have recorded PBM binding z-score that is 4 or more?
1.0

Does the sequence CTATGTAGGTTAAAGGGGTCATTCAGTTTGAAAG have recorded PBM binding z-score that is 4 or more?
1.0

Does the sequence TCTAGTAGGTCACGGAGGTCACACACGACGGGTA have recorded PBM binding z-score that is 4 or more?
1.0

Does the sequence CTAACTAGGTCAAGGTCAAAGTCGGTTTGTGCCA have recorded PBM binding z-score that is 4 or more?
1.0

Does the sequence CAAACTAGGTCACAGAGGTTAAAGTCCGTGCGTA have recorded PBM binding z-score that is 4 or more?
1.0

Does the sequence CCGAGTAGGTTACGAGGGGGCGTTCAGTGCGAAT have recorded PBM binding z-score that is 4 or more?
1.0

Does the sequence ATATGTAGGTTAGAGTCATTCAGAAAGTAGGGAA have recorded PBM binding z-score that is 4 or more?
0.0

Does the sequence CTATGTAGGTTAAGGGGGTCATTCAGTTTGAAAG have recorded PBM binding z-score that is 4 or more?
1.0

Does the sequence CTATGTAGGTTAAGGGGGTCAGTCAGTTTGAAAG have recorded PBM binding z-score that is 4 or more?
1.0

Does the sequence AGTCAAAGTTCTTCTAGGTAACGTAAGATATGCT have recorded PBM binding z-score that is 4 or more?
0.0

Does the sequence CGAACTAGGGCAAAGGACAGTGAAAGGCGACGTA have recorded PBM binding z-score that is 4 or more?
0.0

Does the sequence TCGAGTATGTTACGGGGGCATTCAGGGATGAAGA have recorded PBM binding z-score that is 4 or more?
1.0

Does the sequence TCGAGTAGGTTAGGGGGGCATTCAGGGATGAAGA have recorded PBM binding z-score that is 4 or more?
1.0

Does the sequence TCGAGTAGGTTACGGGGGAATTCAGGGATGAAGA have recorded PBM binding z-score that is 4 or more?
0.0

Does the sequence CGTCCAAGGTCAGCAGGTCACTGAAAGCGACGTG have recorded PBM binding z-score that is 4 or more?
0.0

Does the sequence TCGAGTAGGTTACGGGGGCATACAGGGATGAAGA have recorded PBM binding z-score that is 4 or more?
1.0

Does the sequence CGTCCAACGTCAGCAGGTCAGTGAAAGCGACGTG have recorded PBM binding z-score that is 4 or more?
0.0

Does the sequence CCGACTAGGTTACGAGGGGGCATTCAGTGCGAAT have recorded PBM binding z-score that is 4 or more?
1.0

Does the sequence ATATGAAGGTTAGGGTCATTCAGAAAGTAGGGAA have recorded PBM binding z-score that is 4 or more?
1.0

Does the sequence CAAAGTAGGTCAAGGTCAAAGTCGGTTTGTGCCA have recorded PBM binding z-score that is 4 or more?
1.0

Does the sequence AATTCAGGGTCACTAGGCCAGAGTAGGTACGAAT have recorded PBM binding z-score that is 4 or more?
1.0

Does the sequence GACACAGGGTCAGCTAGAGGCCAGAGTATGGAAA have recorded PBM binding z-score that is 4 or more?
0.0

Does the sequence CGTCCAAGGTCAGCAGGTGAGTGAAAGCGACGTG have recorded PBM binding z-score that is 4 or more?
0.0

Does the sequence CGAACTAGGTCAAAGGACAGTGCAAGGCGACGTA have recorded PBM binding z-score that is 4 or more?
0.0

Does the sequence GATACAGGGTGAGCTAGAGGCCAGAGTATGGAAA have recorded PBM binding z-score that is 4 or more?
0.0

Does the sequence TCGAGTAGGTTACGGGGGCACTCAGGGATGAAGA have recorded PBM binding z-score that is 4 or more?
1.0

Does the sequence CGAACTAAGTCACCAGGACAGTGAAGAGGTTGGA have recorded PBM binding z-score that is 4 or more?
0.0

Does the sequence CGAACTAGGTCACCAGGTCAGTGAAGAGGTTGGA have recorded PBM binding z-score that is 4 or more?
0.0

Does the sequence CAAACTAGGTCACCGGAAGGTCATAGTCCGCATG have recorded PBM binding z-score that is 4 or more?
1.0

Does the sequence CGAACTAGGCCAAAGGACAGTGAAAGGCGACGTA have recorded PBM binding z-score that is 4 or more?
0.0

Does the sequence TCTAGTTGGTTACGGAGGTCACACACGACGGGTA have recorded PBM binding z-score that is 4 or more?
0.0

Does the sequence CCTACTGGGCCAAAAAGGCCATTGATGCCGATAA have recorded PBM binding z-score that is 4 or more?
0.0

Does the sequence CGTCCAAGGTCAGAGAGGTCACTGAATGCCGAGT have recorded PBM binding z-score that is 4 or more?
1.0

Does the sequence CTATGTTGGTTAAGGGGGTCATTCAGTTTGAAAG have recorded PBM binding z-score that is 4 or more?
1.0

Does the sequence CCTACTGGGCCATTCAGAGGACATTGATCATATG have recorded PBM binding z-score that is 4 or more?
0.0
